The entries below come with measured DC50 values attached.
- targetEntity: SHP2 protein (Homo sapiens, UniProt Q06124)
- Sequence (Q06124 1-593): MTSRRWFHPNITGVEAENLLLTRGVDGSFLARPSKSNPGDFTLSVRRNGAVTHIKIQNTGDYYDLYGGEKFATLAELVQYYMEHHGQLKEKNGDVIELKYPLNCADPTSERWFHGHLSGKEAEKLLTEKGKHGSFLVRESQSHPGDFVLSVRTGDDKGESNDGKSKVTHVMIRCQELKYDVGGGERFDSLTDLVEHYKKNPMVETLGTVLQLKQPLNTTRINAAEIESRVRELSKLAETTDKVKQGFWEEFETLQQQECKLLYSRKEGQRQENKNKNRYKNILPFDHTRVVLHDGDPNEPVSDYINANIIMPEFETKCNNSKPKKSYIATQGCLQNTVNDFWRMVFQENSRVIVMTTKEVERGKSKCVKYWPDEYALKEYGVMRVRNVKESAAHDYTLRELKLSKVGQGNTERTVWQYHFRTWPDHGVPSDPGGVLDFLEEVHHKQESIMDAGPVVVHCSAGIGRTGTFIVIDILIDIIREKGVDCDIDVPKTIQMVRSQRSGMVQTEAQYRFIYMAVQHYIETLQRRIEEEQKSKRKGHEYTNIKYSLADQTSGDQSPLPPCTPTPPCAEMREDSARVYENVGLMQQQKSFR
- experimentalDetails: Degradation activity on SHP2 protein in MIA Paca-2 cells (Western blot, DC50)
- Type: cell-based
- Set-up: endogenous in cells; host or cells: MIA Paca-2 cells
- conditionLabel: read-out: Degradation activity for differenct cell lines MIA Paca-2 (DC50)
Counter-ions that a name gives are not always drawn.

Sample answers from the record:
C[C@@H]1CN(c2ccc(C(=O)NCc3ccc4c(c3)CN(C3CCC(=O)NC3=O)C4=O)nn2)CCN1CCCCCCCCC(=O)Nc1cccc(Sc2cnc(N3CCC(C)(N)CC3)cn2)c1 (some centres unmarked) [Compound 252]
< 100 nM
NC1CCN(c2cnc(Sc3cccc(NC(=O)CCCCN4CC5(CCN(c6ccc(C(=O)NCc7ccc8c(c7)CN(C7CCC(=O)NC7=O)C8=O)nn6)C5)C4)c3)cn2)CC1F (centres unmarked) [Compound 140]
> 1000 nM
C[C@@H]1OCC2(CCN(c3cnc(Sc4cccc(NC(=O)c5ccc(N6CCC(N7CC=C(c8ccc(C(=O)NCc9ccc%10c(c9)CN(C9CCC(=O)NC9=O)C%10=O)nc8F)CC7)CC6)c(F)c5)c4)cn3)CC2)[C@@H]1N (some centres unmarked) [Compound 483, hydrochloride]
< 100 nM

Q: Fill in the blank: the reported DC50 of COCC1(N)CCN(c2cnc(Sc3cccc(NC(=O)CCCCCCN4CC5(CCN(c6ccc(C(=O)NCc7ccc8c(c7)CN(C7CCC(=O)NC7=O)C8=O)nn6)C5)C4)c3)cn2)CC1 (centres unmarked) [Compound 199] is ____.
Ans: < 100 nM

Q: Fill in the blank: the reported DC50 of CC1(N)CCN(c2cnc(Sc3cccc(NC(=O)C4CC(N5CCC(N6CC=C(c7ccc(C(=O)Nc8ccc9c(c8)CN(C8CCC(=O)NC8=O)C9=O)nn7)CC6)CC5)C4)c3)cn2)CC1 (centres unmarked) [Compound 310] is ____.
Ans: < 100 nM
